From: ChEMBL document CHEMBL1961873

- system under test: cGMP-dependent protein kinase 2 (Homo sapiens);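 also: reported figure is a mean inhibition value against PRKG2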
- Sequence (whole entry): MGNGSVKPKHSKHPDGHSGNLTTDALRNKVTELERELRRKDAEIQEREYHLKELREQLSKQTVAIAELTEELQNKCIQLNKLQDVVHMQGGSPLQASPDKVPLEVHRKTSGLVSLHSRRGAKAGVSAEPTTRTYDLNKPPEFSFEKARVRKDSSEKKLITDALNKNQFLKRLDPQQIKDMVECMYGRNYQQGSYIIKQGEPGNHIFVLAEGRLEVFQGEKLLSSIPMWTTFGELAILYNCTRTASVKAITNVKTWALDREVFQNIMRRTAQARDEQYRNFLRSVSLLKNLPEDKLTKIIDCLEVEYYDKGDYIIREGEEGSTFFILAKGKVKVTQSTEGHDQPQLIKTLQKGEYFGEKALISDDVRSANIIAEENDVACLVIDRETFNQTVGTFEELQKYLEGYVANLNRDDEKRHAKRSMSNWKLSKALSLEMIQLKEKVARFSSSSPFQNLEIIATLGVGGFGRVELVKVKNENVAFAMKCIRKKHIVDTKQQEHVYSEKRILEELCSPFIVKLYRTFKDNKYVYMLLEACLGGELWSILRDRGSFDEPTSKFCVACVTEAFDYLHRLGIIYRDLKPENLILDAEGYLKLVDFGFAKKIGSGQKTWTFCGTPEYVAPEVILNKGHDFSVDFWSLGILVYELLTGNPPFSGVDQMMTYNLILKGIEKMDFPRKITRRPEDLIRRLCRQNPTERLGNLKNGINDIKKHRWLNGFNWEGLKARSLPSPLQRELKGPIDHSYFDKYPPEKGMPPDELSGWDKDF
- test parameters: at 0.1 µM
Outcome: t for inhibition of at least 3%; f for anything lower.

Task item: In plain terms: is recorded inhibition at least 3% for CCOc1ccc2c(-c3ccnc(Nc4cc(OC)cc(C(F)(F)F)c4)n3)cnn2n1 ?
Reply: f

Task item: In plain terms: is recorded inhibition at least 3% for Fc1cccc(COc2ccc(Nc3ncncc3C#Cc3ccccc3)cc2Cl)c1 ?
Reply: t

Task item: In plain terms: is recorded inhibition at least 3% for N#Cc1cccc(Nc2ncc(-c3ccccc3)o2)c1 ?
Reply: f
